Provide the recorded Dmax for the entries that follow.
- Assayed Target: IRAK4 (Homo sapiens, UniProt Q9NWZ3)
- Sequence (Q9NWZ3 whole entry, species assumed): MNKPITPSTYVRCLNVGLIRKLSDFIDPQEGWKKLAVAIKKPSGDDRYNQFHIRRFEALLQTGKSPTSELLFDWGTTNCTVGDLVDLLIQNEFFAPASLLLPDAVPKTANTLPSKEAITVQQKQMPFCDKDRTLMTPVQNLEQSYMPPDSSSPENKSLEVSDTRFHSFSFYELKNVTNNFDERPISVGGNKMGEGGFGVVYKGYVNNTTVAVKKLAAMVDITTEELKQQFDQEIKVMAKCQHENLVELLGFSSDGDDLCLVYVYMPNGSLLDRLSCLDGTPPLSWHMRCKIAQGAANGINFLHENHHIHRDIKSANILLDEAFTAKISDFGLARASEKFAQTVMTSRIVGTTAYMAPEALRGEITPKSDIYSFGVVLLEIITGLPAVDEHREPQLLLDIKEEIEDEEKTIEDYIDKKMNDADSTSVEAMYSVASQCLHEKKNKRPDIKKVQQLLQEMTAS
- Test Name: Hibit fluorescence detection of proteolysis (IRAK4-HiBiT in HEK293T cells)
- Assay type: cell-based
- Parameters: host or cells: HEK293T (ATCC)
- Experimental Setup: HEK-293T

The reported value for Cn1c(=O)n(C2CCC(=O)NC2=O)c2cccc(C#CC3CCN(C[C@H]4CC[C@H](n5cc(-n6cc(-c7cnn8ccc(N9CCOCC9)nc78)nn6)c(C(F)F)n5)CC4)CC3)c21 (some centres unmarked) in terms of Dmax is 70 to 80%

The reported value for Cn1c(=O)n(C2CCC(=O)NC2=O)c2cccc(C#CC3CN(C[C@H]4CC[C@H](n5cc(-n6cc(-c7ccc8cc(C(N)=O)cnn78)nn6)c(C(F)F)n5)CC4)C3)c21 (some centres unmarked) in terms of Dmax is 70 to 80%

The reported value for Cn1c(=O)n(C2CCC(=O)NC2=O)c2cccc(NC(=O)N3CCC4(CCN(C[C@H]5CC[C@H](n6cc(-n7cc(-c8ccc9cc(C(N)=O)cnn89)nn7)c(C(F)F)n6)CC5)C4)CC3)c21 (some centres unmarked) in terms of Dmax is 70 to 80%

The reported value for Cn1c(=O)n(C2CCC(=O)NC2=O)c2cccc(N3CC4(CCN(C[C@H]5CC[C@H](n6cc(-n7cc(-c8cnn9ccc(N%10CCOCC%10)nc89)nn7)c(C(F)F)n6)CC5)CC4)C3)c21 (some centres unmarked) in terms of Dmax is > 80%

The reported value for Cn1c(=O)n(C2CCC(=O)NC2=O)c2cccc(CN3CCN(C[C@H]4CC[C@H](n5cc(-n6cc(-c7ccc8cc(C(N)=O)cnn78)nn6)c(C(F)F)n5)CC4)CC3)c21 (some centres unmarked) in terms of Dmax is > 80%
